∆Tm by entry:
# Test system: F21T (DNA, G4) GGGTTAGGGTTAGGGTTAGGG
# PROCEDURE TEXT: FRET melting
# APPLIED CONDITIONS: K+ 10 mM, Na+ 10 mM, Li+ 90 mM; KCl–LiCl–cacodylate, pH 7.0; LDR 5; DNA 0.2 mM [sic] (0.2 µM, ligand 1 µM)
PROPERTY NAME: ∆Tm (°C)

[[record]]
entry_smiles = "COc1ccc(Oc2ccc3cc4[n+](cc3c2OC)CCc2cc3c(cc2-4)OCO3)cc1"
property_name = "∆Tm"
result = 3.9

[[record]]
entry_smiles = "COc1c(Oc2ccc(Br)cc2)ccc2cc3[n+](cc12)CCc1cc2c(cc1-3)OCO2"
property_name = "∆Tm"
result = 1.8

[[record]]
entry_smiles = "COc1c(Oc2ccc([N+](=O)[O-])cc2)ccc2cc3[n+](cc12)CCc1cc2c(cc1-3)OCO2"
property_name = "∆Tm"
result = 3.5

[[record]]
entry_smiles = "COc1c(Oc2ccccc2)ccc2cc3[n+](cc12)CCc1cc2c(cc1-3)OCO2"
property_name = "∆Tm"
result = 3.2

[[record]]
entry_smiles = "COc1c(Oc2ccc(Cl)cc2)ccc2cc3[n+](cc12)CCc1cc2c(cc1-3)OCO2"
property_name = "∆Tm"
result = 2.6


====

Kb by entry:
# Tested on: 22AG (DNA, G4) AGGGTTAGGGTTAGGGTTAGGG
# PROCEDURE TEXT: photometric (absorption) titration
# APPLIED CONDITIONS: K+ 110 mM; K-phosphate buffer, pH 7.0, 5% v/v DMSO; ligand 20 µM; per site
PROPERTY NAME: Kb

[[record]]
entry_smiles = "COc1ccc(Oc2ccc3cc4[n+](cc3c2OC)CCc2cc3c(cc2-4)OCO3)cc1"
tested_on = "22AG (DNA, G4) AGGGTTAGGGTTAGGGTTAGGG"
property_name = "Kb"
result = "7.2 ± 0.2 × 10^5 M^-1"

[[record]]
entry_smiles = "COc1c(Oc2ccc(Cl)cc2)ccc2cc3[n+](cc12)CCc1cc2c(cc1-3)OCO2"
tested_on = "22AG (DNA, G4) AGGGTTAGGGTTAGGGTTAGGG"
property_name = "Kb"
result = "7.1 ± 0.2 × 10^5 M^-1"

[[record]]
entry_smiles = "COc1c(Oc2ccccc2)ccc2cc3[n+](cc12)CCc1cc2c(cc1-3)OCO2"
tested_on = "22AG (DNA, G4) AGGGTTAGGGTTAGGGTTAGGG"
property_name = "Kb"
result = "8.7 ± 0.2 × 10^5 M^-1"

[[record]]
entry_smiles = "COc1c(Oc2ccc([N+](=O)[O-])cc2)ccc2cc3[n+](cc12)CCc1cc2c(cc1-3)OCO2"
tested_on = "22AG (DNA, G4) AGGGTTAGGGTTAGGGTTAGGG"
property_name = "Kb"
result = "7.9 ± 0.3 × 10^5 M^-1"

[[record]]
entry_smiles = "COc1c(Oc2ccc(Br)cc2)ccc2cc3[n+](cc12)CCc1cc2c(cc1-3)OCO2"
tested_on = "22AG (DNA, G4) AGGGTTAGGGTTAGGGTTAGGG"
property_name = "Kb"
result = "5.2 ± 0.3 × 10^5 M^-1"

